Hello, the source for this data is paper PMC12692795, in case you need it.

# Tested on: NCI-H460 (lung carcinoma)
# experiment notes: Antitumoral assay (MTS, 72 h), NCI-H460
# applied conditions: Homo sapiens, NCI-H460, 72 h, read-out: Cytotoxicity IC50, NCl-H460
endpoint: IC50 (µM)
Report only the number, with the unit µM understood.

C/C(=C/CC[C@H](C)[C@@H]1CC[C@]2(C)C3=C(CC[C@@]12C)[C@@]1(C)CC(Br)C(=O)C(C)(C)C1CC3)C(=O)O (mixture of isomers) ... 25.1

Prompt: GET IC50 | system: NCI-H460 (lung carcinoma) | item: C/C(=C/CC[C@H](C)[C@@H]1CC[C@]2(C)C3=C(CC[C@@]12C)[C@@]1(C)Cc2sc(N)nc2C(C)(C)[C@@H]1CC3)C(=O)O
Response: 24.5
